For each of the binders below, state its fluorescence staining intensity (geometric mean).
- target.of.assay: a4(Q878R)b7 (human) (UniProt P13612)
- Sequence (P13612 34-1032, chain 1 of 2): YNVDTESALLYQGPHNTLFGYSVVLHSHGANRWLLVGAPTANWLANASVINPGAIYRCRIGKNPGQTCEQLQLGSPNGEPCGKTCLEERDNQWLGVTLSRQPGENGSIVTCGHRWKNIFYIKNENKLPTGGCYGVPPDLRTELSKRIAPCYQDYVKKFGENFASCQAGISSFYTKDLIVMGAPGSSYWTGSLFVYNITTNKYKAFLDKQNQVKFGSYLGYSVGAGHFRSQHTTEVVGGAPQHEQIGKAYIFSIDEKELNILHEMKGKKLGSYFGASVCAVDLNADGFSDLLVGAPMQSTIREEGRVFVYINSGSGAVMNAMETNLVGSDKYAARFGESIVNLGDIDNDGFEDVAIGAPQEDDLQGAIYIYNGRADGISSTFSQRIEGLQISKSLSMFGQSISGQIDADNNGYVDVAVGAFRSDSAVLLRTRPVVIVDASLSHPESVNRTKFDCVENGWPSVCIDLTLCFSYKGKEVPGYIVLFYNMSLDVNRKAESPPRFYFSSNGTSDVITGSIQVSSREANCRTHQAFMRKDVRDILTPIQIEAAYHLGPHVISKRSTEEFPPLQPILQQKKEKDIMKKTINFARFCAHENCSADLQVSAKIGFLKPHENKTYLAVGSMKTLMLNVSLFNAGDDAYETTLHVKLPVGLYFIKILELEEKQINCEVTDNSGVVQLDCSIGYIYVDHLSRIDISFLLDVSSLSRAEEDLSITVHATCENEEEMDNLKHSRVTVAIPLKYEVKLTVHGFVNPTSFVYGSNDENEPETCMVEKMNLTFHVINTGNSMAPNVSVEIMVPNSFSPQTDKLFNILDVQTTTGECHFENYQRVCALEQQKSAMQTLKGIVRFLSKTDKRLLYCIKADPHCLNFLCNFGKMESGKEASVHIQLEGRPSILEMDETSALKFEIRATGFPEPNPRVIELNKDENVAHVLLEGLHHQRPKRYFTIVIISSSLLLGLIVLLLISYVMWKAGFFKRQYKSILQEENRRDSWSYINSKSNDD
- Sequence (P26010 20-798, chain 2 of 2, further chain): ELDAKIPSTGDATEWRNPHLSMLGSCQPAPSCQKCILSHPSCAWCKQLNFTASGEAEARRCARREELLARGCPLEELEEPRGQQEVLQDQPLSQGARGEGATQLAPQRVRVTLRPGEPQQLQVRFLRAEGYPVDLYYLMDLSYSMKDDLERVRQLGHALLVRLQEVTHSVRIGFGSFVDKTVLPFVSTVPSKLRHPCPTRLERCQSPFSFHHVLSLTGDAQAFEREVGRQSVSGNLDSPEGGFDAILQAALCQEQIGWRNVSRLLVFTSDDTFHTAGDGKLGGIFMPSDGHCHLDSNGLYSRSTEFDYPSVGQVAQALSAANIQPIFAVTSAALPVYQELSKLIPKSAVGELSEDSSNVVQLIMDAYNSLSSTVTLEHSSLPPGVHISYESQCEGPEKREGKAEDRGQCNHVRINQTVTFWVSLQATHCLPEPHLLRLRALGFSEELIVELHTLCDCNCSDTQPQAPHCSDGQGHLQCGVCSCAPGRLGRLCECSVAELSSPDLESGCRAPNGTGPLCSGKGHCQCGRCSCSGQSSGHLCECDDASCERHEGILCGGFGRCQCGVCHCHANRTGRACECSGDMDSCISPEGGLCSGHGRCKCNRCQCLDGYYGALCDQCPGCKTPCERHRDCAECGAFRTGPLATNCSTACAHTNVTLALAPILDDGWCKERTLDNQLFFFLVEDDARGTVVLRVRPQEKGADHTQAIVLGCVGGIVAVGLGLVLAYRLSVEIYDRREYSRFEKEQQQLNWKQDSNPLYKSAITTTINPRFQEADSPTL
- assay.explanation: FACS on transfected 293 cells, 1 microG/ml, PE anti-human IgG
# respond with the number and nothing more

Query: Find the measured fluorescence staining intensity (geometric mean) of 27G8 (antibody, V domains shown, Fully human monoclonal from XenoMouse (human IgG2 or IgG4); lambda light chain; PE-conjugated in the cynomolgus study; also called 27G8L; 27G8H) VH: EVQLVESGGGLVQPGGSLRLSCAASGFTFSSYWMSWVRQASGKGLEWVANIKQDGSEKYYVDSVKGRFTISRDNAKNSLYLQMNSLRAEDTAVYYCAREGGYDWNYADYYGMDVWGQGTTVTVSS VL: QSVLTQPPSVSEAPRQRVTISCSGSNSNIGNNPVNWYQLFPGRAPKLLIYHDDLLPSGVSDRFSGSRSGTSASLAISGLQSEDETDYYCTAWDDSLNGWVFGGGTKLTVL and report it.
Reply: 58

Query: Find the measured fluorescence staining intensity (geometric mean) of 26G2 (antibody, V domains shown, Fully human monoclonal from XenoMouse (human IgG2 or IgG4); kappa light chain; also called 26G2k; 26G2K) VH: QVQLVESGGGLVKPGGSLRLSCAASGFTFSDYYMSWIRQAPGKGLEWVSYISSIGSAIHYADSVKGRFTISRDNAKNSLYLQMNSLRAEDTAVYYCAREYSSGWAYFDYWGQGTLVTVSS VL: DIQMTQSPSSVSASVGDRVTITCRASQDISSWLAWYQQKPGTAPKVLIYSASSLQNGVPSRFSGRGSGTDFALTISSLQPEDFATYYCQQADSFPWTFGRGTKVEIK and report it.
Reply: 58

Query: Find the measured fluorescence staining intensity (geometric mean) of 3A5 (antibody, V domains shown, Fully human monoclonal from XenoMouse (human IgG2 or IgG4); kappa light chain; also called 3A5K; 3A5H) VH: QVQLVQSGAEVKKPGASVKVSCKVSGYTLNDLSMHWVRQAPGKGLEWMGGFDPAEGKIISAQKFQDRVTMTDDTSTDTAYMELSSLRSEDSAVYYCATLDFSSWFDPWGQGTLVTVSS VL: DIQMTQSPSSVSASVGDRVTITCRASQGVISWLAWYQQKPGMAPKLLIYAASILQSGVPSRFSGSGSGTDFTLTISSLQPEDFATYYCQQANSFPWTFGQGTNVEIK and report it.
Reply: 71

Query: Find the measured fluorescence staining intensity (geometric mean) of 19G6 (antibody, V domains shown, Fully human monoclonal from XenoMouse (human IgG2 or IgG4); kappa light chain; also called 19G6K; 19G6H) VH: QVQLVESGGDLVKPGGSLRLSCAASGFTFSDYYMSWIRQAPGKGLEWISYISSSGSTMYYADSVKGRFTISRVNAKNSLYLQMNSLRAEDTAVYYCARDRSSGLVSFDYWGQGTLVTVSS VL: DIQMTQSPSSLSASVGDRVTISCQASQDINTYLNWYQQKPGKVPKLLIYDASNLETGVPSRFSGSGSGTDFTFTISGLQPEDIATYYCQQFDNLPITFGQGTRLEIK and report it.
Reply: 46

Query: Find the measured fluorescence staining intensity (geometric mean) of 22B2 (antibody, V domains shown, Fully human monoclonal from XenoMouse (human IgG2 or IgG4); kappa light chain; also called 22B2K; 22B2H) VH: EVQLVQSGAEVKEPGESLKISCKGSGYIFTSYWIAWVRQLPGKGLEWMGIIDPNDSDTRYSPSFQGQVTISADKSIHTAYLQWSSLKASDTAMYYCATHRLWLGTLPGGFYIWGQGTMVTVSS VL: DVQMTQSPSSLSASVGDRVTITCQASQDITDYLNWYQQKPGKAPKLLIYDTSNLEAGVPSRFSGSGSGTDFTFTISSLQPEDIATYYCQQYDILPYSFGQGTDLEIK and report it.
Reply: 58
